# measuredTarget: T1, thyroid stimulating hormone receptor (full length human TSHR) (human, UniProt P16473 22-764)
# T1 construct: Full length TSHR coated onto plastic tubes (TSHR coated tubes, as in WO2004/050708A2); also called TSH receptor
# testName: competitor ^125I-K1-70 IgG, TSHR coated tubes; 0.001 µg/mL in assay buffer
reportedMetric: Inhibition of binding (%)
Dear colleague, please return just the value in %, with no unit written.

Some solved cases for reference:
- binder: "K1-18 IgG (antibody, V domains shown, Human IgG1 kappa purified from hetero-hybridoma supernatant; it is not part of the secreted protein; also called human monoclonal TSHR autoantibody K1-18 (stimulating)) VH: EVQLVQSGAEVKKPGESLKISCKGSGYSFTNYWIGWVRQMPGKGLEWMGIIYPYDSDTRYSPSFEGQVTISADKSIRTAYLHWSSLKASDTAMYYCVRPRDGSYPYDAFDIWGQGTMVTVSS VL: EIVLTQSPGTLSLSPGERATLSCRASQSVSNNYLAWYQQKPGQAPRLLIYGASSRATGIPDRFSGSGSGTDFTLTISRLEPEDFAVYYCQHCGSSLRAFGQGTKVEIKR"
  reportedMetric: "Inhibition of binding (%)"
  quantitativeResult: 7.2
- binder: "K1-70 Fab (Fab, V domains shown) VH: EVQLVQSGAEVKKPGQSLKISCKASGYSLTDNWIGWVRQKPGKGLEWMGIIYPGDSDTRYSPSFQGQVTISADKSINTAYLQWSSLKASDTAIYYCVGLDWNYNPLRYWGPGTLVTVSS VL: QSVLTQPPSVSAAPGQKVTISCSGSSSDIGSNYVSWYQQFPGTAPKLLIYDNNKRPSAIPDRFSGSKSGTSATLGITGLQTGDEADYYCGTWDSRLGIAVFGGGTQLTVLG"
  reportedMetric: "Inhibition of binding (%)"
  quantitativeResult: 12.2
- binder: "K1-70 IgG (antibody, V domains shown, Human IgG1 lambda purified from hetero-hybridoma supernatant) VH: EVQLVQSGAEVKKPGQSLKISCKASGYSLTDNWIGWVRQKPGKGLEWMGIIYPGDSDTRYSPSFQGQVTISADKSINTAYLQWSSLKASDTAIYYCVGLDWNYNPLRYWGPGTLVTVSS VL: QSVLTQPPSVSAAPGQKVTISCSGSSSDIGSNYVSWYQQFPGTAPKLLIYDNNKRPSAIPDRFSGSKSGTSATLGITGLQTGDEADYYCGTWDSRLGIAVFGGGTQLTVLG"
  reportedMetric: "Inhibition of binding (%)"
  quantitativeResult: 15.3

Prompt: Given the entry K1-18 Fab (Fab, V domains shown) VH: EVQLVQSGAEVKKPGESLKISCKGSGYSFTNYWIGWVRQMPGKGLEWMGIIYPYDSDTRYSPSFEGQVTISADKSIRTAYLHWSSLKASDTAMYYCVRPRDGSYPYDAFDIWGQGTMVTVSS VL: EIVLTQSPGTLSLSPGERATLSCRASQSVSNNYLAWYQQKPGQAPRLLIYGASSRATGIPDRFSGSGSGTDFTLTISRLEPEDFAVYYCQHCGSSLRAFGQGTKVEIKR , report its measured Inhibition of binding (%).
Response: 13.8
